- test.method.notes: photoluminescence quantum yield (fraction); solvent given as SMILES
- measurement.conditions: in CC#N
endpoint: photoluminescence quantum yield

Input: // returns reported photoluminescence quantum yield for input `c1ccc(-c2nc(-c3ccc(-c4nc(-c5ccccc5)c(-c5ccccc5)[nH]4)cc3)[nH]c2-c2ccccc2)cc1`
Output: 0.75

A: CN(C)c1ccc2nc(-c3ccc(/C=N/c4ccccc4)cc3)sc2c1
B: Oc1ccc2ccc(C3(O)C4CC5CC(C4)CC3C5)cc2c1 (centres undefined)
Input: Select the item with the higher value of photoluminescence quantum yield from the options A and B listed. Selection: enter the item's label.
Output: A

* * *

- test.method.notes: photoluminescence quantum yield (fraction); solvent given as SMILES
- measurement.conditions: in C1CCOC1
endpoint: photoluminescence quantum yield

Past entries and their recorded results:
Input: Would you mind telling me what photoluminescence quantum yield value was observed for `CC1=N/C(=C\c2ccccc2N)C(=O)N1C` ?
Output: 0.009

Input: What do you get for `c1ccc(-c2nn(-c3ccccc3)c3nc4ccc(N(c5ccccc5)c5ccccc5)cc4cc23)cc1` ?
Output: 0.7

Input: Now try `Cc1ccc(-c2ccc(-c3ccc(C)cc3)c(/C(=C(/c3ccccc3)c3cc(-c4ccc(C)cc4)ccc3-c3ccc(C)cc3)c3ccccc3)c2)cc1` .
Output: 0.32

Input: Please do the same for `CCOC(=O)c1[nH]c(C)c(/C=C/c2c(I)c(C)c3n2[B-](F)(F)[N+]2=C(C)C(I)=C(C)C2=C3c2cc(OC)cc(OC)c2)c1C` as well.
Output: 0.22

Input: What about this compound? `CCC(CC)COC1=CC2=C3c4cc(OCC(CC)CC)c(-c5cccs5)n4[B-](F)(F)[n+]4nnn(c43)[B-](F)(F)[N+]2=C1c1cccs1`
Output: 0.06

1: CCCCC1(CCCC)c2cc(C#Cc3ccc(C=C(c4ccccc4)c4ccccc4)cc3)ccc2-c2ccc(C#Cc3ccc(C=C(c4ccccc4)c4ccccc4)cc3)cc21
2: COCCN1C(=O)/C(=C/c2cccc(N(C)C)c2)N=C1C
Input: Rank 1 against 2 by their photoluminescence quantum yield values and give the higher one. Use the label to indicate which entry you chose.
Output: 2

* * *

- test.method.notes: photoluminescence quantum yield (fraction); solvent given as SMILES
- measurement.conditions: in C1CCOC1
endpoint: photoluminescence quantum yield

Input: Quick one: photoluminescence quantum yield of `CC(C)(C)c1ccc(C2=C(c3ccc(-n4c5ccccc5c5ccccc54)cc3)S(=O)(=O)c3c2sc(-c2ccc(-n4c5ccccc5c5ccccc54)cc2)c3-c2ccc(C(C)(C)C)cc2)cc1` ?
Output: 0.056

Input: Item: `Cc1ccc(C2=[N+]3C(=Cc4c(C)cc(C)n4[B-]3(F)F)c3ccccc32)[nH]1`
Output: 0.82

Input: Same question for `COc1cc(-c2nc3c4cccnc4c4ncccc4c3[nH]2)c(OC)cc1/C=C/c1ccncc1` please.
Output: 0.79

Input: Same again, this time with COC(=O)C(Cc1ccc2oc(-c3ccc(N(c4ccccc4)c4ccccc4)cc3)nc2c1)NC(=O)OC(C)(C)C (stereo not drawn)
Output: 0.77

I: C(=C1c2ccccc2CCc2ccccc21)c1ccc(C=C2c3ccccc3CCc3ccccc32)cc1
II: CCOC(=O)c1ccc(C2=C(c3ccccc3)c3sc4ccccc4[n+]3[B-](F)(F)O2)cc1
III: c1cc2c3c4c5c(cccc5cc3c1)-c1cccn1B4n1cccc1-2
IV: CC1=N/C(=C\c2cc(C#N)cc(N(C)C)c2)C(=O)N1C
Input: Put the items in order so that reported photoluminescence quantum yield rises from first to last. Your answer should be the labels, listed in the requested order.
Output: I, II, III, IV

* * *

Reported photoluminescence quantum yield values follow for various compounds
- test.method.notes: photoluminescence quantum yield (fraction); solvent given as SMILES
- measurement.conditions: in Cc1ccccc1
Form rule: numeric answer, no unit written next to it.

Input: # query: photoluminescence quantum yield of entry `COc1ccc(C2=C(c3ccccc3)C(c3ccccc3)=[N+]3C2=Nc2c(-c4ccc(OC)cc4)c(-c4ccccc4)c(-c4ccccc4)n2[B-]3(F)F)cc1`
Output: 0.04

Continuing:
Input: What measured photoluminescence quantum yield goes with `CCCCOC(=O)c1cc(Oc2ccc(OC)cc2)c2c3c(Cl)cc4c5c(cc(Cl)c(c6c(Oc7ccc(OC)cc7)cc(C(=O)OCCCC)c1c26)c53)C(=O)N(c1c(C(C)C)cccc1C(C)C)C4=O` ?
Output: 0.55

Input: Lookup `C(=C\N1CCCC1)/c1nc2ccccc2nc1-c1ccccc1`
Output: 0.49

Input: Query `COc1cc(C2=CC3=C(c4c(C)cc(C)cc4C)c4cc(-c5cc(OC)c(OC)c(OC)c5)c(-c5cc(OC)c(OC)c(OC)c5)n4[B-](F)(F)[N+]3=C2c2cc(OC)c(OC)c(OC)c2)cc(OC)c1OC` next
Output: 0.16

Input: Please give the result for `CCN(CC)c1ccc(/C=C/c2ccc(-c3ccc(/C=C/c4ccc(N(CC)CC)cc4)s3)s2)cc1` too.
Output: 0.14

Input: Please give the result for `CCCCCCCCCCCCNc1cccc2[n+]1[B-](F)(F)n1c(c3cccc4cccc1c43)=N2` too.
Output: 0.36

Input: Continue with `Cc1ccc(C2=[N+]3C(=Cc4c(C)cc(C)n4[B-]3(F)F)c3ccccc32)[nH]1`
Output: 0.83

* * *

- test.method.notes: photoluminescence quantum yield (fraction); solvent given as SMILES
- measurement.conditions: in ClC(Cl)(Cl)Cl
Quick reference: photoluminescence quantum yield of the listed items.
Response field accepts a number only; no unit should be typed.

Input: Consider the compound `O=C1c2ccccc2C(=O)c2cc(-c3ccc(N(c4ccccc4)c4ccccc4)cc3)ccc21` and give its measured photoluminescence quantum yield.
Output: 0.326

Input: Quick one: `CCCCCCCCCCCCCCCCOc1cc(C#Cc2ccc3ccccc3c2)c(OCCCCCCCCCCCCCCCC)cc1C#Cc1ccc(C=C(C#N)C#N)cc1`
Output: 0.81

Input: What do we get for `O=C1O[B-]2(OC1=O)OC(c1ccc3ccccc3c1)=CC(c1ccc3ccccc3c1)=[O+]2` ?
Output: 0.8

Input: And what about the compound `CCCCCCCC(=O)Oc1ccc2c3cccc4c(OC(=O)CCCCCCC)ccc(c5cccc1c52)c43` ?
Output: 0.06

Input: Could you do the same for `CCCCCCCCCCCCCCCCOc1cc(C#Cc2ccc3ccccc3c2-c2c(C#Cc3cc(OCCCCCCCCCCCCCCCC)c(C#Cc4ccc(C=C(C#N)C#N)cc4)cc3OCCCCCCCCCCCCCCCC)ccc3ccccc23)c(OCCCCCCCCCCCCCCCC)cc1C#Cc1ccc(C=C(C#N)C#N)cc1` , please?
Output: 0.95

Input: Next compound up: `Cc1cc(C#Cc2ccccc2)c2ccc3c(C#Cc4ccccc4)cc(C#Cc4ccccc4)c4ccc1c2c43`
Output: 0.56

Input: Also, `CC(=O)[B-]1(C(C)=O)OC(c2ccccc2)=CC(c2ccc3ccccc3c2)=[O+]1` please.
Output: 0.58

Input: Same thing, different compound: `COc1ccc(N(c2ccc(OC)cc2)c2ccc(-c3ccc4c(c3)C(=O)c3ccccc3C4=O)cc2)cc1`
Output: 0.0538

Input: Same again, this time with `COc1ccc(C2=CC(c3ccc4ccccc4c3)=[O+][B-](C(C)=O)(C(C)=O)O2)cc1`
Output: 0.8

Turning now to a further record.
Input: // lookup photoluminescence quantum yield for `F[B-]1(F)OC(c2ccc3ccccc3c2)=CC(c2ccc3ccccc3c2)=[O+]1`
Output: 0.9

* * *

- test.method.notes: photoluminescence quantum yield (fraction); solvent given as SMILES
- measurement.conditions: in C1CCOC1
endpoint: photoluminescence quantum yield

Sample records with photoluminescence quantum yield:
Input: What measured photoluminescence quantum yield goes with `CCC1(CC)c2cc(/C=C/c3ccc(/C=C/c4ccc5c(c4)C(CC)(CC)c4cc(N6c7ccccc7Sc7ccccc76)ccc4-5)cc3)ccc2-c2ccc(N3c4ccccc4Sc4ccccc43)cc21` ?
Output: 0.33

Input: Subsequent entry: `N#Cc1ccc(C[C@H](N)C(=O)O)cc1`
Output: 0.031

Input: Now consider `CCn1c2ccccc2c2cc(-c3cc(-c4ccc5c(c4)c4ccccc4n5CC)nc(-c4ccc(C#N)cc4)n3)ccc21` .
Output: 0.08

P: c1ccc(/C(=C(\c2ccccc2)c2cc(-c3ccccc3)ccc2-c2ccccc2)c2cc(-c3ccccc3)ccc2-c2ccccc2)cc1
Q: Cc1cccc(Nc2ccccc2C(=O)O)c1C
Input: Please state the entry with greater photoluminescence quantum yield among P and Q . // return label of chosen record
Output: P

* * *

- test.method.notes: photoluminescence quantum yield (fraction); solvent given as SMILES
- measurement.conditions: in C1CCCCC1
endpoint: photoluminescence quantum yield

Examples from the recorded data:
Input: Entry `CCC1=C(C)C(=O)n2c1cc1c(c(C)c(C(=O)OC)n1C)c2=O` : reported photoluminescence quantum yield = ?
Output: 0.03

Input: Same again, this time with `COc1c2ccccc2c(OC)c2c1c1c(C)ccc(OC)c1n2C`
Output: 0.23

Input: Same lookup for `c1ccc(-c2nc3c(ccc4[nH]ccc43)o2)cc1` , please.
Output: 0.6

Input: Now try `Fc1ccc(-c2cc3c4c(c2)CCc2cc(-c5ccc(F)cc5)cc(c2-4)CC3)cc1` .
Output: 0.48

A: CN(C)c1ccc2c(c1)-c1ccccc1C2=O
B: F[B-]1(F)n2ccnc2-c2cccc[n+]21
Input: Between item A and item B , which reported photoluminescence quantum yield is smaller? Use the label to indicate which entry you chose.
Output: B
(B: 0.03, A: 0.14)

Data provenance is the Deep4Chem optical property database.
